Recorded growth AUC by entry
System: Bifidobacterium longum subsp. longum
PROCEDURE DETAILS: growth AUC relative to DMSO control (median of replicates) (fraction); higher = more growth (less inhibition), active = hit call of the paper
CONDITION SET: 20 µM; 24 h
Give a plain numeric answer without units written out.

molecule=O.O=C(Nc1ccc([N+](=O)[O-])cc1Cl)c1cc(Cl)ccc1O test_target="Bifidobacterium longum subsp. longum" observable="growth AUC" meas_value=0.0965
molecule="COC1CCC2(CC1)NC(=O)C(c1cc(C)ccc1C)=C2O (stereo not given)" test_target="Bifidobacterium longum subsp. longum" observable="growth AUC" meas_value=1.09
molecule=CN(C)C(=O)c1cccnc1S(N)(=O)=O test_target="Bifidobacterium longum subsp. longum" observable="growth AUC" meas_value=1.02
molecule=CN(C)C=O test_target="Bifidobacterium longum subsp. longum" observable="growth AUC" meas_value=1.13

I have this molecule here, CON=C(Cc1cccnc1)c1ccc(Cl)cc1Cl , and I need its recorded growth AUC.
0.998

I have this molecule here, CC(C)N(C(=O)CS(=O)(=O)[O-])c1ccc(F)cc1.[Na+] , and I need its recorded growth AUC.
0.944

I have this molecule here, CN(C)C(=O)Nc1ccc(Oc2ccc(Cl)cc2)cc1 , and I need its recorded growth AUC.
0.991

---

Tested on: Fusobacterium nucleatum subsp. animalis
PROCEDURE DETAILS: growth AUC relative to DMSO control (median of replicates) (fraction); higher = more growth (less inhibition), active = hit call of the paper
CONDITION SET: 20 µM; 24 h
Recorded growth AUC by entry
Give a plain numeric answer without units written out.

Please review the entries below; each comes with its answer.
compound=O.O=C(Nc1ccc([N+](=O)[O-])cc1Cl)c1cc(Cl)ccc1O observable="growth AUC" meas_value=0.741
compound=CC(C)CCCCCCc1ccc(O)cc1 observable="growth AUC" meas_value=1.16
compound=CC[N+](CC)(CC(=O)Nc1c(C)cccc1C)Cc1ccccc1.O=C([O-])c1ccccc1 observable="growth AUC" meas_value=1.02

I have this compound here, CCC(C)c1cc([N+](=O)[O-])cc([N+](=O)[O-])c1OC(=O)OC(C)C (stereo unspecified) , and I need its recorded growth AUC.
0.611

I have this compound here, COc1c(I)cc(C#N)cc1I , and I need its recorded growth AUC.
0.981

I have this compound here, C#CC(C)N(C)C(=O)Nc1ccc(Cl)cc1 (stereo unspecified) , and I need its recorded growth AUC.
1.03

---

System: Escherichia coli ED1a
PROCEDURE DETAILS: growth AUC relative to DMSO control (median of replicates) (fraction); higher = more growth (less inhibition), active = hit call of the paper;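 active = AUC reduced over 20% with Padj below 0.05 in at least 2 of 3 replicates; inactive = otherwise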
CONDITION SET: 20 µM; 24 h
Give your call using only these classes: true (active), false (inactive)

Consider the worked cases shown below.
molecule=COc1cccc(N(C)C(=S)Oc2cccc(C(C)(C)C)c2)n1 group=false
molecule="CCOc1ccc(C2(C(=O)OC(C#N)c3cccc(Oc4ccccc4)c3)CC2(Cl)Cl)cc1 (stereo not drawn)" group=false

Hello, I am checking results. What call was entered for Cc1nn(C)c(Oc2ccccc2)c1/C=N/OCc1ccc(C(=O)OC(C)(C)C)cc1 ?
false

Hello, I am checking results. What call was entered for COc1nc(NC(=O)NS(=O)(=O)c2ccccc2C(F)(F)F)nc(C(F)(F)F)n1 ?
false

Hello, I am checking results. What call was entered for CC(C)OC(=O)c1cc(C(=O)OC(C)C)cc([N+](=O)[O-])c1 ?
false

Hello, I am checking results. What call was entered for CCCCCCCCCC[N+](C)(C)Cc1ccccc1.[Cl-] ?
false

Hello, I am checking results. What call was entered for CC(C)N(C)S(=O)(=O)NC(=O)c1cc(-n2c(=O)cc(C(F)(F)F)[nH]c2=O)c(F)cc1Cl ?
false

Hello, I am checking results. What call was entered for FC(F)(F)c1cccc(C(c2ccccc2)(c2ccccc2)n2cncn2)c1 ?
false

Hello, I am checking results. What call was entered for CCC([O-])=C1C(=O)CC(C(=O)[O-])CC1=O.[Ca+2] (stereo not drawn) ?
false
